Could you please report measured z-score for the items listed next?
Experimental target: NADPH oxidase 5 (Homo sapiens) (UniProt Q96PH1)
Sequence (Q96PH1 whole entry, looked up): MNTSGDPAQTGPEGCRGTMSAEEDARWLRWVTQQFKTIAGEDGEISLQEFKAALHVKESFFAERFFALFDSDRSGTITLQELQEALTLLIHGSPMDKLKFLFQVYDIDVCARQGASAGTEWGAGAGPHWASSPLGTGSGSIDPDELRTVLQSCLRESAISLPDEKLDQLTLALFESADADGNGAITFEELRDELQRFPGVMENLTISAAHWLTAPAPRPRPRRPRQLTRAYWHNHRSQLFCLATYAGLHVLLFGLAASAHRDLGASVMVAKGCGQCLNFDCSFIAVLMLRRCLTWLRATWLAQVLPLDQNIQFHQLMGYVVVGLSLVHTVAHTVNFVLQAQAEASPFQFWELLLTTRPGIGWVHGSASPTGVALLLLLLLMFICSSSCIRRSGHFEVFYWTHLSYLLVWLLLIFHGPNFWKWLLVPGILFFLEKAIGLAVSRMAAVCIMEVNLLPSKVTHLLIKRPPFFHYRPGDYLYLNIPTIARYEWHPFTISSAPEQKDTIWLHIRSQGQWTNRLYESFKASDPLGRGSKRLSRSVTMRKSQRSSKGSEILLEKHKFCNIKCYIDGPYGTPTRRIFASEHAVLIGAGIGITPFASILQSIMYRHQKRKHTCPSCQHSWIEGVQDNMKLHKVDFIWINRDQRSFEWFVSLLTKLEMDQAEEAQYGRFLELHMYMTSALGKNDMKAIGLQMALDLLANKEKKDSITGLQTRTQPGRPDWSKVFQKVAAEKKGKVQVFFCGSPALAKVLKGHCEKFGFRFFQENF
Protocol description: NOX5-dependent H2O2 signal modulators, primary screen, NOX inhibitor project, cell-based, HEK293-NOX5, Amplex Red fluorescence (AID 1161)
Test context: HEK293-NOX5, ionomycin, 45 min, higher = more signal
Output: the number by itself.

Form field z-score for item NC(=O)N1C(=O)C2C(C1=O)C1C=C(c3ccc(CO)cc3)C2C(C2CC2)N1Cc1sc2ccccc2c1Cl (configuration not stated) on NADPH oxidase 5 (Homo sapiens) (UniProt Q96PH1): -0.568

Entry `CC(C)CN1C(=O)[C@@]2(c3ccc([N+](=O)[O-])cc3)CC(=O)N(CC34CC5CC(CC(C5)C3)C4)[C@@H]2c2ccc(CO)cc21` ; assay system NADPH oxidase 5 (Homo sapiens) (UniProt Q96PH1); z-score recorded at -0.986

Considering `C=C(COC)/C(=C/C[C@@H](OC(=O)c1ccncc1)c1cccc(OCCO)c1)c1cnc2ccccc2c1` , its z-score with NADPH oxidase 5 (Homo sapiens) (UniProt Q96PH1) was recorded as -3.1

Let me check: `COCCOC(=O)N1C(=O)[C@@]2(c3cc(C#CC4=CCCCC4)ccc31)[C@H](c1ccccc1OCCO)N1[C@H](c3ccccc3)[C@H](c3ccccc3)OC(=O)[C@H]1[C@@H]2C(=O)N1CCc2cc(OC)c(OC)cc2C1` , system NADPH oxidase 5 (Homo sapiens) (UniProt Q96PH1), measured z-score is 1.53

The reported NADPH oxidase 5 (Homo sapiens) (UniProt Q96PH1) z-score of `O=c1cccc(-c2cccc(Cl)c2)o1` is -0.541

The observed z-score for `NCCCCCCNC(=O)[C@@H]1C[C@@H]2C(=O)N3CCC[C@H]3C(=O)N2[C@@H]1c1ccc(O)cc1` when tested with NADPH oxidase 5 (Homo sapiens) (UniProt Q96PH1) stands at -0.515

The compound C=CCC(OC(C)=O)[C@@H]1[C@@H](N(Cc2ccc(-c3ccccc3)cc2)C(=O)c2cccc3ccccc23)c2cc(OCCCO)ccc2N1C(=O)Cc1ccc2ccccc2c1 (some centres not stated) on NADPH oxidase 5 (Homo sapiens) (UniProt Q96PH1): z-score was -4.09
